Answer each item with its documented DC50.
target entity: PLK1 (Homo sapiens, UniProt P53350)
Construct: endogenous in cells; host or cells: HeLa
Sequence (P53350 whole entry): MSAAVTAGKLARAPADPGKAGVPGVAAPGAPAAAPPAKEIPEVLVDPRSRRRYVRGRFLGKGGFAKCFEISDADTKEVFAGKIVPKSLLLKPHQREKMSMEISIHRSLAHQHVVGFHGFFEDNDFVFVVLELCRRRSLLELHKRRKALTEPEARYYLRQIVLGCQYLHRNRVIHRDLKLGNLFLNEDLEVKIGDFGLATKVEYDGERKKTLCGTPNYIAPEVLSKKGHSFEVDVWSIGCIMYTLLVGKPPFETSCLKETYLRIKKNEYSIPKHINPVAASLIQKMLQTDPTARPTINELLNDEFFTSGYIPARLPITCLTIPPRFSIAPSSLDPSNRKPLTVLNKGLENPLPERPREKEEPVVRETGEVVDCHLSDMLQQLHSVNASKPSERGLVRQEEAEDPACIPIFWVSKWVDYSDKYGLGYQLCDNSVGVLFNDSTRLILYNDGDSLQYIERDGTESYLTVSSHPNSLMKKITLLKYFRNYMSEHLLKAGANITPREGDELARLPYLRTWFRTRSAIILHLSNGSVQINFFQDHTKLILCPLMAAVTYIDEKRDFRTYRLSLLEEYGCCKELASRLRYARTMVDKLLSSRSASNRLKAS
assay summary: PLK1 protein degradation in HeLa cells, Western blotting (PLK1/GAPDH ratio)
Format: cell-based
experimental parameters: 6 hours compound incubation, measured only if the grade of Dmax is A or B

[in] May I ask what DC50 has been recorded for COc1cc(C(=O)NC2CCN(CCOCCCCCCCCOCC(=O)Nc3cccc4c3C(=O)N(C3CCC(=O)NC3=O)C4=O)CC2)c(F)cc1Nc1ncc2c(n1)N(C1CCCC1)CC(F)(F)C(=O)N2C (stereo not drawn) ?
[out] ≤ 500 nM

[in] May I ask what DC50 has been recorded for COc1cc(C(=O)NCC2CCCN(CCOCCNc3cccc4c3C(=O)N(C3CCC(=O)NC3=O)C4=O)C2)c(F)cc1Nc1ncc2c(n1)N(C1CCCC1)CC(F)(F)C(=O)N2C (stereo not drawn) ?
[out] ≤ 50 nM

[in] May I ask what DC50 has been recorded for COc1cc(C(=O)NC2CCN(C(=O)CCOCCNc3cccc4c3C(=O)N(C3CCC(=O)NC3=O)C4=O)CC2)c(F)cc1Nc1ncc2c(n1)N(C1CCCC1)CC(F)(F)C(=O)N2C (stereo not drawn) ?
[out] ≤ 50 nM

###

target entity: PLK1 (Homo sapiens, UniProt P53350)
Construct: endogenous in cells; host or cells: HeLa
assay summary: PLK1 protein degradation in HeLa cells, Western blotting (PLK1/GAPDH ratio)
Assay type: cell-based
experimental parameters: thymidine block and release, 6 hours compound incubation, 10 points three-fold from 3 μM, PLK1 to GAPDH ratio, read-out: Dmax
Answer each item with its documented Dmax.

[in] Query Dmax on PLK1 (Homo sapiens, UniProt P53350) for COc1cc(C(=O)NC2CCN(CCOCCNc3cccc4c3C(=O)N(C3CCC(=O)NC3=O)C4=O)C2)c(F)cc1Nc1ncc2c(n1)N(C1CCCC1)CC(F)(F)C(=O)N2C (stereo not shown)
[out] 60 to 80%

[in] Query Dmax on PLK1 (Homo sapiens, UniProt P53350) for COc1cc(C(=O)NC2CCN(CCCn3cnc(CNc4cccc5c4C(=O)N(C4CCC(=O)NC4=O)C5=O)c3)CC2)c(F)cc1Nc1ncc2c(n1)N(C1CCCC1)CC(F)(F)C(=O)N2C (stereo not shown)
[out] ≥ 80%

[in] Query Dmax on PLK1 (Homo sapiens, UniProt P53350) for COc1cc(C(=O)NC2CC3(C2)CN(C(=O)CCCNc2cccc4c2C(=O)N(C2CCC(=O)NC2=O)C4=O)C3)c(F)cc1Nc1ncc2c(n1)N(C1CCCC1)CC(F)(F)C(=O)N2C (stereo not shown)
[out] ≥ 80%

[in] Query Dmax on PLK1 (Homo sapiens, UniProt P53350) for CN1C(=O)C(F)(F)CN(C2CCCC2)c2nc(Nc3ccc(C(=O)N[C@H]4CCN(C(=O)CCC(=O)N5CCN(c6cccc7c6C(=O)N(C6CCC(=O)NC6=O)C7=O)CC5)C4)cc3)ncc21 (stereo partly shown)
[out] 60 to 80%

[in] Query Dmax on PLK1 (Homo sapiens, UniProt P53350) for COc1cc(C(=O)NC2CN(CCOCCOCCNc3cccc4c3C(=O)N(C3CCC(=O)NC3=O)C4=O)C2)c(F)cc1Nc1ncc2c(n1)N(C1CCCC1)CC(F)(F)C(=O)N2C (stereo not shown)
[out] ≥ 80%

[in] Query Dmax on PLK1 (Homo sapiens, UniProt P53350) for COc1cc(C(=O)N[C@@H]2CCN(C(=O)CCCCCNc3cccc4c3C(=O)N(C3CCC(=O)NC3=O)C4=O)C2)c(F)cc1Nc1ncc2c(n1)N(C1CCCC1)CC(F)(F)C(=O)N2C (stereo partly shown)
[out] ≥ 80%

[in] Query Dmax on PLK1 (Homo sapiens, UniProt P53350) for COc1cc(C(=O)NC2CCN(CCOCCNC(=O)COc3cccc4c3C(=O)N(C3CCC(=O)NC3=O)C4=O)CC2)c(F)cc1Nc1ncc2c(n1)N(C1CCCC1)CC(F)(F)C(=O)N2C (stereo not shown)
[out] 60 to 80%

[in] Query Dmax on PLK1 (Homo sapiens, UniProt P53350) for COc1cc(C(=O)NC2CCN(CCOCCOCCOCCOCCOCCOCCOCCNc3cccc4c3C(=O)N(C3CCC(=O)NC3=O)C4=O)CC2)c(F)cc1Nc1ncc2c(n1)N(C1CCCC1)CC(F)(F)C(=O)N2C (stereo not shown)
[out] ≥ 80%

[in] Query Dmax on PLK1 (Homo sapiens, UniProt P53350) for COc1cc(C(=O)N[C@H]2CCN(CCOCCNC(=O)CNc3cccc4c3C(=O)N(C3CCC(=O)NC3=O)C4=O)C2)c(F)cc1Nc1ncc2c(n1)N(C1CCCC1)CC(F)(F)C(=O)N2C (stereo partly shown)
[out] 60 to 80%

[in] Query Dmax on PLK1 (Homo sapiens, UniProt P53350) for COc1cc(C(=O)NC2CC3(C2)CN(C(=O)CCCCNc2cccc4c2C(=O)N(C2CCC(=O)NC2=O)C4=O)C3)c(F)cc1Nc1ncc2c(n1)N(C1CCCC1)CC(F)(F)C(=O)N2C (stereo not shown)
[out] ≥ 80%

###

target entity: PLK1 (Homo sapiens)
Construct: endogenous in cells; host or cells: HeLa
assay summary: PLK1 protein degradation in HeLa cells, Western blotting (PLK1/GAPDH ratio)
Assay type: cell-based
experimental parameters: 6 hours compound incubation, measured only if the grade of Dmax is A or B
Answer each item with its documented DC50.

[in] May I ask what DC50 has been recorded for CN1C(=O)C(F)(F)CN(C2CCCC2)c2nc(Nc3cc(F)c(C(=O)NC4CCN(CCOCCOCCNc5cccc6c5C(=O)N(C5CCC(=O)NC5=O)C6=O)CC4)cc3OC3CCC3)ncc21 (centres unmarked) ?
[out] ≤ 50 nM

[in] May I ask what DC50 has been recorded for COc1cc(C(=O)NC2CCN(Cc3ccc(OCCOCCOCCNc4cccc5c4C(=O)N(C4CCC(=O)NC4=O)C5=O)cc3)CC2)c(F)cc1Nc1ncc2c(n1)N(C1CCCC1)CC(F)(F)C(=O)N2C (centres unmarked) ?
[out] ≤ 50 nM

[in] May I ask what DC50 has been recorded for CN1C(=O)C(F)(F)CN(C2CCCC2)c2nc(Nc3cc(F)c(C(=O)NC4CCN(CCOCCOCCNc5cccc6c5C(=O)N(C5CCC(=O)NC5=O)C6=O)CC4)cc3OC3CCCC3)ncc21 (centres unmarked) ?
[out] > 500 nM

[in] May I ask what DC50 has been recorded for COc1cc(C(=O)NC2CCCN(CCOCCNc3cccc4c3C(=O)N(C3CCC(=O)NC3=O)C4=O)C2)c(F)cc1Nc1ncc2c(n1)N(C1CCCC1)CC(F)(F)C(=O)N2C (centres unmarked) ?
[out] ≤ 500 nM

[in] May I ask what DC50 has been recorded for COc1cc(C(=O)N[C@H]2CCN(C(=O)CCCC(=O)N3CC4(C3)CN(c3cccc5c3C(=O)N(C3CCC(=O)NC3=O)C5=O)C4)C2)c(F)cc1Nc1ncc2c(n1)N(C1CCCC1)CC(F)(F)C(=O)N2C (some centres unmarked) ?
[out] ≤ 500 nM

###

target entity: PLK1 (Homo sapiens, UniProt P53350)
Construct: endogenous in cells; host or cells: HeLa
assay summary: PLK1 protein degradation in HeLa cells, Western blotting (PLK1/GAPDH ratio)
Format: cell-based
experimental parameters: thymidine block and release, 6 hours compound incubation, 10 points three-fold from 3 μM, PLK1 to GAPDH ratio, read-out: Dmax
measured attribute: Dmax

[in] May I ask what Dmax has been recorded for COc1cc(C(=O)NC2CCN(CCOCCOCCOCCOCCCc3cccc4c3C(=O)N(C3CCC(=O)NC3=O)C4=O)CC2)c(F)cc1Nc1ncc2c(n1)N(C1CCCC1)CC(F)(F)C(=O)N2C (centres unmarked) ?
[out] ≥ 80%

[in] May I ask what Dmax has been recorded for COc1cc(C(=O)NCCCCCCCC(=O)Nc2cccc3c2C(=O)N(C2CCC(=O)NC2=O)C3=O)c(F)cc1Nc1ncc2c(n1)N(C1CCCC1)CC(F)(F)C(=O)N2C (centres unmarked) ?
[out] 60 to 80%

[in] May I ask what Dmax has been recorded for COc1cc(C(=O)NC2CCN(C(=O)COCCNc3cccc4c3C(=O)N(C3CCC(=O)NC3=O)C4=O)CC2)c(F)cc1Nc1ncc2c(n1)N(C1CCCC1)CC(F)(F)C(=O)N2C (centres unmarked) ?
[out] < 60%

[in] May I ask what Dmax has been recorded for COc1cc(C(=O)NC2CCN(CCOCCOCCNc3cccc4c3C(=O)N(C3CCC(=O)NC3=O)C4=O)C2)c(F)cc1Nc1ncc2c(n1)N(C1CCCC1)CC(F)(F)C(=O)N2C (centres unmarked) ?
[out] ≥ 80%

[in] May I ask what Dmax has been recorded for CN1C(=O)C(F)(F)CN(C2CCCC2)c2nc(Nc3cc(F)c(C(=O)NC4CCN(CCOCCOCCNc5cccc6c5C(=O)N(C5CCC(=O)NC5=O)C6=O)CC4)cc3OC3CCC3)ncc21 (centres unmarked) ?
[out] ≥ 80%

Provenance of the data: patent US20230372498A1
